system: IGROV1 ovarian; assay: NCI-60 one-dose screen, 48 h (100 = growth as untreated, 0 = no growth, -100 = all killed); conditions: 10 µM unless noted
Compounds without any hit were thinned out: in the full panel of roughly 83,000, 20% have a hit.
Assign growth to each entry below.
Number in %, nothing else.

Query block: Find the measured growth of COC1=CC(c2ccc[nH]2)=N/C1=C\c1[nH]c(C)c(CCCn2cc(CCCCCCCCC[C@@H]3Cc4cc(O)ccc4C4CC[C@]5(C)[C@@H](O)CC[C@H]5C43)nn2)c1C (stereo partly drawn) with IGROV1 ovarian as test system.
Result block: 78.1

Query block: Enter measured growth, system IGROV1 ovarian, for the molecule shown: c1ccc2nc(-c3ccc4ccccc4n3)ccc2c1
Result block: 79.5

Query block: Please tell me the measured growth for CN1CCN(c2ccc3cc(-c4nc5ccccc5[nH]4)c(=O)oc3c2)CC1 ; system: IGROV1 ovarian.
Result block: 79.9
